pKi: −log10 of the molar value.
Record set of pKi for target or system human somatostatin receptor SSTR3 (Homo sapiens (Human), UniProt P32745).

Solved cases below.
Fc1ccc2c(Cc3nnc(Cc4c[nH]c5cc(F)ccc45)n3CCCc3c[nH]cn3)c[nH]c2c1 ... 5.76
COc1ccc2[nH]cc(Cc3nnc(Cc4cccc(C(F)(F)F)c4)n3CCCc3c[nH]cn3)c2c1 ... 5.95
Clc1ccccc1Cc1nnc(CCc2c[nH]c3ccccc23)n1CCCc1c[nH]cn1 ... < 5.00
Clc1cccc(Cc2nnc(CCc3c[nH]c4ccccc34)n2CCCc2c[nH]cn2)c1 ... < 5.00
Fc1ccc(Cc2nnc(Cc3c[nH]c4cc(F)ccc34)n2CCCc2c[nH]cn2)cc1 ... < 5.00
COc1ccc2[nH]cc(Cc3nnc(Cc4ccc(F)cc4)n3CCCc3c[nH]cn3)c2c1 ... < 5.00
Fc1cccc(Cc2nnc(CCc3c[nH]c4ccccc34)n2CCCc2c[nH]cn2)c1 ... < 5.00

Next, consider the following molecule.
**Q:** Find the measured pKi: item COc1ccccc1Cc1nnc(CCc2c[nH]c3ccccc23)n1CCCc1c[nH]cn1 , target or system human somatostatin receptor SSTR3 (Homo sapiens (Human), UniProt P32745).
**A:** < 5.00

###

Catalogue of Ki readings, one per entry.
biological target: human somatostatin receptor SSTR3 (Homo sapiens (Human))

Solved cases below.
FC(F)(F)c1cccc(Cc2nnc(Cc3c[nH]c4ccccc34)n2CCCc2c[nH]cn2)c1 ... > 10 µM
Brc1cccc(Cc2nnc(CCc3c[nH]c4ccccc34)n2CCCc2c[nH]cn2)c1 ... > 10 µM
Cn1cc(CCc2nnc(Cc3ccc(Cl)c(Cl)c3)n2CCCc2c[nH]cn2)c2ccccc21 ... 6.99 µM

Next, consider the following molecule.
**Q:** State the recorded Ki for this entry: c1ccc(Cc2nnc(Cc3c[nH]c4ccccc34)n2CCCc2c[nH]cn2)cc1
**A:** 0.0017 µM

###

molecular target: CHO-K1 cells expressing human somatostatin SSTR4 (Homo sapiens (Human), UniProt P31391); assay: Inhibition of forskolin stimulated cAMP, TR-FRET LANCE assay; conditions: against 5 μM forskolin
Sequence (P31391 whole entry): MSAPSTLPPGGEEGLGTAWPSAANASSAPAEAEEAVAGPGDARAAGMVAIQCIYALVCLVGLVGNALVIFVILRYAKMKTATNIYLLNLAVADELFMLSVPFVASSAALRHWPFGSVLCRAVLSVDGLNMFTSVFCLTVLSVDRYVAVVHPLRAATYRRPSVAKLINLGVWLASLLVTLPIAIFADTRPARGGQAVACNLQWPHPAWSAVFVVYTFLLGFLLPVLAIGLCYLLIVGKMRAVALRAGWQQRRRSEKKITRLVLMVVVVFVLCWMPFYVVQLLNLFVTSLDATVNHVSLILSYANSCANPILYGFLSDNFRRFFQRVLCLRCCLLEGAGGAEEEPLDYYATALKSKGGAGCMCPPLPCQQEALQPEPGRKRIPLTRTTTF
Measured Quantity: EC50 (nM)
# output: bare number, implied unit nM

**Q:** State the recorded EC50 for this entry: c1ccc(Cc2nnc(Cc3c[nH]c4ccccc34)n2CCCc2c[nH]cn2)cc1
**A:** 2.03

###

target: human somatostatin receptor SSTR1 (Homo sapiens (Human))
pKi: −log10 of the molar value.
Class true: pKi at least 6. Class false: pKi below 6.

Known results for molecules:
c1ccc(CSc2nnc(-c3c[nH]c4ccccc34)n2CCCc2c[nH]cn2)cc1 [AH-1-86] ... false
COc1ccc2[nH]cc(Cc3nnc(Cc4ccccc4)n3CCCc3c[nH]cn3)c2c1 [SK-I-53] ... false
Clc1ccccc1Cc1nnc(CCc2c[nH]c3ccccc23)n1CCCc1c[nH]cn1 [MM-I-17] ... false
Clc1cccc(Cc2nnc(CCc3c[nH]c4ccccc34)n2CCCc2c[nH]cn2)c1 [BN-VI-56] ... false
COc1ccc2[nH]cc(Cc3nnc(Cc4cccc(C(F)(F)F)c4)n3CCCc3c[nH]cn3)c2c1 [SK-I-57] ... true
Fc1ccc2c(Cc3nnc(Cc4c[nH]c5cc(F)ccc45)n3CCCc3c[nH]cn3)c[nH]c2c1 [SK-I-124] ... true

**Q:** Threshold query (pKi >= 6) on Fc1ccc(Cc2nnc(Cc3c[nH]c4cc(F)ccc34)n2CCCc2c[nH]cn2)cc1 [SK-I-91]
**A:** true

**Q:** Threshold query (pKi >= 6) on FC(F)(F)c1cccc(Cc2nnc(Cc3c[nH]c4ccccc34)n2CCCc2c[nH]cn2)c1 [MM-I-66]
**A:** true

**Q:** Threshold query (pKi >= 6) on CC(C)(C)Cc1nnc(Cc2c[nH]c3cc(F)ccc23)n1CCCc1c[nH]cn1 [SK-I-119]
**A:** false

###

biological target: human somatostatin receptor SSTR2A (Homo sapiens (Human), UniProt P30874)
Sequence (P30874 whole entry): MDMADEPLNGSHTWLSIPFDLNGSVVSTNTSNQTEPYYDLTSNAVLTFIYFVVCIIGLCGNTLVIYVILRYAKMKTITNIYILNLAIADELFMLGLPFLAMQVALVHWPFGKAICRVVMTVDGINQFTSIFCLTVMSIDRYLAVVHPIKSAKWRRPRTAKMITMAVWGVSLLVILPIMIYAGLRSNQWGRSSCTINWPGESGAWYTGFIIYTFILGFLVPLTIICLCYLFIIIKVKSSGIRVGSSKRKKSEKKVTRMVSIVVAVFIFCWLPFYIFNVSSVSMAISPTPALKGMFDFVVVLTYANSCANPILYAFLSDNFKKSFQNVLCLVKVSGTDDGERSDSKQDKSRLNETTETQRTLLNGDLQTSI
Measured Quantity: pKi
Quick note: pKi values are minus log10 of concentrations in mol/L.

Fc1ccc2c(Cc3nnc(Cc4cccc(C(F)(F)F)c4)n3CCCc3c[nH]cn3)c[nH]c2c1 [MM-I-87] ... 5.48

Next, consider the following compound.
**Q:** State the recorded pKi for this entry: FC(F)(F)c1cccc(Cc2nnc(Cc3c[nH]c4ccccc34)n2CCCc2c[nH]cn2)c1 [MM-I-66]
**A:** 5.63

###

Record set of pKi for target or system human somatostatin receptor SSTR2A (Homo sapiens (Human), UniProt P30874).
Quick note: pKi values are minus log10 of concentrations in mol/L.

Fc1ccc2c(Cc3nnc(Cc4c[nH]c5cc(F)ccc45)n3CCCc3c[nH]cn3)c[nH]c2c1 ... 6.19

**Q:** Find the measured pKi: item COc1ccc2[nH]cc(Cc3nnc(Cc4cccc(C(F)(F)F)c4)n3CCCc3c[nH]cn3)c2c1 , target or system human somatostatin receptor SSTR2A (Homo sapiens (Human), UniProt P30874).
**A:** 5.77

**Q:** Find the measured pKi: item Clc1cc(Cl)cc(Cc2nnc(CCc3c[nH]c4ccccc34)n2CCCc2c[nH]cn2)c1 , target or system human somatostatin receptor SSTR2A (Homo sapiens (Human), UniProt P30874).
**A:** 5.16

The values you see were collected from patent US11136312B2.
